# Protocol: Selectivity ratio of Ki for m-calpain (unknown origin) to Ki for chymotrypsin-like activity of rabbit 20S proteasome
Residues, ends and D or L forms follow the SMILES beside them. *: point of attachment. Cbz = O=C(OCc1ccccc1)*
Listing: Ratio Ki of selected molecules

Below: 3 molecules and their reported Ratio Ki.
COc1ccc(C[C@@H]2NC(=O)[C@@H](NC(=O)OCc3ccccc3)Cc3ccc([N+](=O)[O-])c(c3)Oc3ccc(cc3)C[C@@H](C(=O)N[C@H](C=O)CC(C)C)NC2=O)cc1 :: 55
CC(C)C[C@@H](C=O)NC(=O)[C@@H]1Cc2ccc(cc2)Oc2cc(ccc2[N+](=O)[O-])C[C@H](NC(=O)OCc2ccccc2)C(=O)N[C@@H](CC(C)C)C(=O)N1 :: 8
COc1ccc(C[C@H](NC(=O)[C@H](Cc2ccccc2)NC(=O)OCc2ccccc2)C(=O)N[C@@H](Cc2ccccc2)C(=O)N[C@H](C=O)CC(C)C)cc1 (Cbz-FY(Me)FL-aldehyde) :: 61

Proceeding to the next molecule to report its Ratio Ki.
q: Name the recorded Ratio Ki of the molecule listed here: CC(C)C[C@@H](C=O)NC(=O)[C@H](CC(C)C)NC(=O)[C@H](CC(C)C)NC(=O)OCc1ccccc1 [MG-132] (Cbz-Leu-Leu-Leu-aldehyde)
a: 10

----------
# Protocol: Inhibition of chymotrypsin-like activity of rabbit 20S proteasome using Suc-LLVY-AMC substrate incubated at 37 degC by fluorometric assay
# Set-up: species or system Oryctolagus cuniculus
Residues, ends and D or L forms follow the SMILES beside them. *: point of attachment. Cbz = O=C(OCc1ccccc1)*
Observable: pKi
In simple prose, pKi is minus the logarithm base ten of a concentration in moles per litre.

Consider the reported pKi for these compounds:
CC(C)C[C@@H](C=O)NC(=O)[C@H](CC(C)C)NC(=O)[C@H](CC(C)C)NC(=O)OCc1ccccc1 [MG-132] (Cbz-Leu-Leu-Leu-aldehyde) :: 7.20
CC(C)C[C@H](NC(=O)[C@H](CCc1ccccc1)NC(=O)CN1CCOCC1)C(=O)N[C@@H](Cc1ccccc1)C(=O)N[C@@H](CC(C)C)C(=O)[C@@]1(C)CO1 :: 7.59

Moving on to the next compound.
q: State its pKi for this compound: CC(C)C[C@H](NC(=O)[C@H](Cc1ccccc1)NC(=O)c1cnccn1)B(O)O
a: 7.62

----------
# Protocol: Inhibition of trypsin-like activity of rabbit 20S proteasome using Cbz-ARR-AMC substrate incubated at 37 degC by fluorometric assay
# Set-up: species or system Oryctolagus cuniculus
Observable: Ki

q: Given CC(C)C[C@@H](C=O)NC(=O)[C@@H]1Cc2ccc(cc2)Oc2cc(ccc2[N+](=O)[O-])C[C@H](NC(=O)OCc2ccccc2)C(=O)N[C@@H](CC(C)C)C(=O)N1 , respond with its Ki.
a: 8.04 µM

----------
# Ki per entry
# System: Calpain-2 catalytic subunit (Homo sapiens)
# Sequence (P17655 whole entry): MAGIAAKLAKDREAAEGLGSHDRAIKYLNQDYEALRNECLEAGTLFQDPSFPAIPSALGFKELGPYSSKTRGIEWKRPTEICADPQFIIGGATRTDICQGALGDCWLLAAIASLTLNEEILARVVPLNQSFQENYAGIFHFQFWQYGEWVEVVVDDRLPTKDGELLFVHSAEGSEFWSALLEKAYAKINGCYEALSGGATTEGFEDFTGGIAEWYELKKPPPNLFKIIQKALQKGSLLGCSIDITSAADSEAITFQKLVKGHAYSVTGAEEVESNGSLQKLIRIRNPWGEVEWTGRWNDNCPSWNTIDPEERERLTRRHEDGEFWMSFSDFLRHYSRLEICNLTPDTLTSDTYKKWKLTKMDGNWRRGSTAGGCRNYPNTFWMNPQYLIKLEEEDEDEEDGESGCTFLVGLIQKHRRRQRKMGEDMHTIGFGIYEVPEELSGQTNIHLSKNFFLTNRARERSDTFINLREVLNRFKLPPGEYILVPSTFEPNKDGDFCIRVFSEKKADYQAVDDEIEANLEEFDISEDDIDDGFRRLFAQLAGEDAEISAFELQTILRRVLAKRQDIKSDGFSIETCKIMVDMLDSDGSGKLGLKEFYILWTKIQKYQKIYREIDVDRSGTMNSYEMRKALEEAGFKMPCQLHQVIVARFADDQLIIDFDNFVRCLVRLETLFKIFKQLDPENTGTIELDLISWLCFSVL
# Protocol: Inhibition of m-calpain (unknown origin) using Suc-LY-AMC as substrate by fluorometric assay
Residues, ends and D or L forms follow the SMILES beside them. *: point of attachment. Cbz = O=C(OCc1ccccc1)*
The response must be a number in nM with no trailing unit.

Some solved cases for reference:
COc1ccc(C[C@H](NC(=O)[C@H](Cc2ccccc2)NC(=O)OCc2ccccc2)C(=O)N[C@@H](Cc2ccccc2)C(=O)N[C@H](C=O)CC(C)C)cc1 (Cbz-FY(Me)FL-aldehyde) :: 1710
COc1ccc(C[C@@H]2NC(=O)[C@@H](NC(=O)OCc3ccccc3)Cc3ccc([N+](=O)[O-])c(c3)Oc3ccc(cc3)C[C@@H](C(=O)N[C@H](C=O)CC(C)C)NC2=O)cc1 :: 2980
CC(C)C[C@@H](C=O)NC(=O)[C@@H]1Cc2ccc(cc2)Oc2cc(ccc2[N+](=O)[O-])C[C@H](NC(=O)OCc2ccccc2)C(=O)N[C@@H](CC(C)C)C(=O)N1 :: 2030

Consider now this further compound.
q: Supply Ki value. Item: CC(C)C[C@@H](C=O)NC(=O)[C@H](CC(C)C)NC(=O)[C@H](CC(C)C)NC(=O)OCc1ccccc1 [MG-132] (Cbz-Leu-Leu-Leu-aldehyde)
a: 653
